The measurements presented in this section are drawn from patent US6495584B1.

- Test: physchem
- Measurement Parameters: pH 1
Parameter Measured: logD at 90 min

Molecule: Oc1ccc2c(c1)C(Cc1c[nH]cn1)CC2 (stereo not shown) [Compound A, 3-(1H-imidazol-4-ylmethyl)-indan-5-ol]
Parameter Measured: logD at 90 min
Result: -0.69

###

- Test: in vivo
- Measurement Parameters: Sprague-Dawley, rat, sc

Molecule: Oc1ccc2c(c1)C(Cc1c[nH]cn1)CC2 (stereo not shown)
Unit Tag: mg/kg
ED50 at 10 min: 0.08

###

- Test system: rat
- Test: Motor coordination: rotarod treadmill
- Measurement Parameters: intrathecal, 15 minutes after injection
Parameter Measured: ED50 Loss of motor coordin. (decrease in rotarod performance)

Compound: Oc1ccc2c(c1)C(Cc1c[nH]cn1)CC2 (stereo not shown)
Test System: rat
Result: > 30 µg/rat
